biological target: T1, human ROR2-ECD (human, UniProt Q01974 34-403); assay: protein ELISA, phage
T1 construct: extracellular domain; also called hROR2
T1 sequence (Q01974 34-403): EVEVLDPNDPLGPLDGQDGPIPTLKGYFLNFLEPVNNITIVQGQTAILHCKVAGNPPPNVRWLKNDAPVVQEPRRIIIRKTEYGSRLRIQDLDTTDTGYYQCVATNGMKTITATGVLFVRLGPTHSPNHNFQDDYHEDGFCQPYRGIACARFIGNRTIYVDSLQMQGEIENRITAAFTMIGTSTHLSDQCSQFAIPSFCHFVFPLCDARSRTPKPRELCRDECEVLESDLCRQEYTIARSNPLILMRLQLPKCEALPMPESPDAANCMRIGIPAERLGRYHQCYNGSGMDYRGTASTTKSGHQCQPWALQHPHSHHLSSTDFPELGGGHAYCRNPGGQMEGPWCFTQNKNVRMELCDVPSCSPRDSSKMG
observation-type: binding result

[[record]]
binder = "P601-120 (scFv, V domains shown) VH: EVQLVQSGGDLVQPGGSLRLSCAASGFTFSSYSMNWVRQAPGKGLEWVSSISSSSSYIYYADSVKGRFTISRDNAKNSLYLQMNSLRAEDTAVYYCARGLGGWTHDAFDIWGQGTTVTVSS VL: QSALTQPASVSGSPGQSITISCTGTSSDVGGYNYVSWYQQHPGKAPKLMIYDVSNRPSGVSNRFSGSKSGNTASLTISGLQAEDEADYYCSSYTSSSTRVFGGGTKLTVL"
result = "no binding"

[[record]]
binder = "P601-86 (scFv, V domains shown) VH: QVTLKESGPTLLKPTQTLTLTCTFSGFSLSTRGVGVGWIRQPPGQALEWLTLIYWDDDKRYSPSLKSRLTITKDTSKNQVVLTMTNMESVDTATYYCAQQTMTGAFDIWGQGTTVTVSS VL: DIQMTQSPSSVSASVGDRVTITCRASQGISTLLAWYQQKPGKAPKLLISSASSLQSGVPARFSGSGSGTDFTLTISSLQPEDFATYYCQQSYRAPTFGQGTKVEIKR"
result = "no binding"

[[record]]
binder = "P601-4 (scFv, V domains shown) VH: EVQLVQSGPGLVKPSGTLSLTCAVSGGSISSSNWWSWVRQPPGKGLEWIGEIYHSGSTNYNPSLKSRVTISVDKSKNQFSLKLGSVTAADTATYYCARDLWLGEWDLWGQGTLVTVSS VL: QSVLTQPPSASGAPGQRVTISCSGGISNVGTNGVNWYQHLPGTAPKLLVDAMNQRPSGVPDRFSGSRSGTSGSLAITGLRSEDEADYYCATWDDSLSGVLFGGGTKLTVLG"
result = "no binding"

[[record]]
binder = "P601-110 (scFv, V domains shown) VH: QVQLVQSGGDLVQPGGSLRLSCAASGFTFSSYSMNWVRQAPGKGLEWVSSISSSSSYIYYADSVKGRFTISRDNAKNSLYLQMNSLRAEDTAVYYCARGLGGWTHDAFDIWGQGTTVTVSS VL: QSALTQPASVSGSPGQSITLSCTGTSSDVGGYNYVSWYQQHPGNGPKLIIYDVTKRPSGVSNRFSGSKSGNTAYLTISGLQAEDEADYYCASYTRSTTLVFGGGTKLTVL"
result = "no binding"


For the binder shown here, P601-9 (scFv, V domains shown) VH: QLQLQESGPGVVKPSGTLSLTCTVSGGSISRSDGYWGWVRQPPGKGLEWIGSIYDTGTTYYSPSLKSRLIISVDTSKNQFSLTLNSVTAADTAVYYCASMGGLRSSSSDAFHTWGPGTMVTVSS VL: QSVLTQPPSVSVAPGETARITCGGTNIGSESVHWYQQRPGQAPVLVVYDDTDRPSGIPERFSGSNSGNTATLTISRVEAGDGADYYCQVWDSVSDRYVFGTGTKVTVL , give the reported binding result.
no binding

Entry P601-100 (scFv, V domains shown) VH: EVQLVQSGGGVVQPGGPLRLSCAASGFTFSSYSMNWVRQAPGKGLEWVSSISSSSSYIYYADSVKGRFTISRDNAKNSLYLQMNSLRAEDTAVYYCARGLGGWTHDAFDIWGQGTMVTVSS VL: QSALTQPASVSGSPGQSITISCTGTSRDVGGYDYVSWYQQYPGNAPKLMIYDVSRRPSGVSHRFSASKSGNTASLTISGLQTEDEADYYCSSYTSSSTRVFGGGTKVTVL : reported binding result = ?
no binding

Entry source: patent US20180009892A1
